assayed.system: human melanocortin receptor subtype 4 (hMC4-R) (human), P32245
Sequence (P32245 whole entry): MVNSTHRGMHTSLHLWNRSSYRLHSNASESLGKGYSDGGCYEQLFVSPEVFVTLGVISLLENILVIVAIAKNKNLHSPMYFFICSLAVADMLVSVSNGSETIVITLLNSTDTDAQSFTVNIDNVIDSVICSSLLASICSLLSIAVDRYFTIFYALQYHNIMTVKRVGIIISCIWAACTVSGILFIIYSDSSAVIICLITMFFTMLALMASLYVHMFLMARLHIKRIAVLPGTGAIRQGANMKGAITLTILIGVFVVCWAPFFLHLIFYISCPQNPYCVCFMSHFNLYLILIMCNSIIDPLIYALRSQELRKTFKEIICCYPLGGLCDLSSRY
assay.protocol: [125I]-NDP-α-MSH competition, membranes
Bridge positions count the residues as written; N and C are the ends. Square brackets hold non-standard residues; d marks the D form. Ends that are not written are not given here.
Mark fulfilled only for Ki values smaller than 9 nM; exact matches and larger values are not fulfilled.

{"columns": ["binder", "cat"],
 "data": [
  ["VGC[dA]H[dF]RWC-NH2 (disulfide 3-9; also: hydantoin ring from C(O) with Val1-Gly2) [Hydantoin(C(O)-(Val-Gly))-c(Cys-D-Ala-His-D-Phe-Arg-Trp-Cys)-NH2]", "fulfilled"],
  ["GGC[dA]H[dF]RWC-NH2 (disulfide 3-9; also: hydantoin ring from C(O) with Gly1-Gly2) [Hydantoin(C(O)-(Gly-Gly))-c(Cys-D-Ala-His-D-Phe-Arg-Trp-Cys)-NH2]", "fulfilled"],
  ["IGC[dA]H[dF]RWC-NH2 (disulfide 3-9; also: hydantoin ring from C(O) with Ile1-Gly2) [Hydantoin(C(O)-(Ile-Gly))-c(Cys-D-Ala-His-D-Phe-Arg-Trp-Cys)-NH2]", "not fulfilled"],
  ["IC[dA]H[dF]RWC-NH2 (disulfide 2-8; also: hydantoin ring from C(O) with Ile1-Cys2) [c[Hydantoin(C(O)-(Ile-Cys))-D-Ala-His-D-Phe-Arg-Trp-Cys]-NH2]", "not fulfilled"],
  ["GRC[dA]H[dF]RWC-NH2 (disulfide 3-9; also: hydantoin ring from C(O) with Gly1-Arg2) [Hydantoin(C(O)-(Gly-Arg))-c(Cys-D-Ala-His-D-Phe-Arg-Trp-Cys)-NH2]", "fulfilled"],
  ["Ac-FRC[dA]H[dF]RWC-NH2 (disulfide 3-9; SMILES CC(=O)N[C@@H](Cc1ccccc1)C(=O)N[C@@H](CCCNC(=N)N)C(=O)N[C@H]1CSSC[C@@H](C(N)=O)NC(=O)[C@H](Cc2c[nH]c3ccccc23)NC(=O)[C@H](CCCNC(=N)N)NC(=O)[C@@H](Cc2ccccc2)NC(=O)[C@H](Cc2c[nH]cn2)NC(=O)[C@@H](C)NC1=O) [Ac-Phe-Arg-c(Cys-D-Ala-His-D-Phe-Arg-Trp-Cys)-NH2]", "fulfilled"],
  ["AGC[dA]H[dF]RWC-NH2 (disulfide 3-9; also: hydantoin ring: C(O) bridging Ala-Gly) [Hydantoin(C(O)-(Ala-Gly))-c(Cys-D-Ala-His-D-Phe-Arg-Trp-Cys)-NH2]", "fulfilled"],
  ["Ac-WRC[dA]H[dF]RWC-NH2 (disulfide 3-9; SMILES CC(=O)N[C@@H](Cc1c[nH]c2ccccc12)C(=O)N[C@@H](CCCNC(=N)N)C(=O)N[C@H]1CSSC[C@@H](C(N)=O)NC(=O)[C@H](Cc2c[nH]c3ccccc23)NC(=O)[C@H](CCCNC(=N)N)NC(=O)[C@@H](Cc2ccccc2)NC(=O)[C@H](Cc2c[nH]cn2)NC(=O)[C@@H](C)NC1=O) [Ac-Trp-Arg-c(Cys-D-Ala-His-D-Phe-Arg-Trp-Cys)-NH2]", "fulfilled"],
  ["LGC[dA]H[dF]RWC-NH2 (disulfide 3-9; also: hydantoin ring from C(O) with Leu1-Gly2) [Hydantoin(C(O)-(Leu-Gly))-c(Cys-D-Ala-His-D-Phe-Arg-Trp-Cys)-NH2]", "not fulfilled"],
  ["RGC[dA]H[dF]RWC-NH2 (disulfide 3-9; also: hydantoin ring: C(O) bridging Arg-Gly) [Hydantoin(C(O)-(Arg-Gly))-c(Cys-D-Ala-His-D-Phe-Arg-Trp-Cys)-NH2]", "fulfilled"]
]}
